From: patent US9085806B2

Measured MIC accompanies every entry in the list below.
- Test system: E. coli Strain ID 301921
- ASSAY_COMMENT: Antimicrobial susceptibility testing, broth microdilution (CLSI)
- Format: cell-based
- DETAILS: Escherichia coli; Strain ID 301921 ESCCOL, ESBL positive; Mueller-Hinton broth; read-out: minimum inhibition concentration (MIC)

COMPOUND	TESTED_TARGET	MIC
C[C@@H](O)[C@H]1C(=O)N2C(C(=O)O)=C(SCCN=CN)C[C@H]12 [IPM, Imipenem]	E. coli Strain ID 301921	≤ 2 µg/mL
CO/N=C(\C(=O)N[C@@H]1C(=O)N2C(C(=O)O)=C(COC(C)=O)CS[C@H]12)c1csc(N)n1 [CTX, Cefotaxime]	E. coli Strain ID 301921	> 64 µg/mL
CC1(C)S[C@@H]2[C@H](NC(=O)[C@H](N)c3ccccc3)C(=O)N2[C@H]1C(=O)O [Amp, Ampicillin]	E. coli Strain ID 301921	> 32 µg/mL

Consider now this further compound.
Ask: Check the records and state MIC for CC(C)(O/N=C(\C(=O)N[C@@H]1C(=O)N2C(C(=O)[O-])=C(C[n+]3ccccc3)CS[C@H]12)c1csc(N)n1)C(=O)O [CAZ, Ceftazidime]
Reply: 32 µg/mL
